Consider the following molecules and their measured Ki readings.
target: purified human Factor XIa (Homo sapiens (Human)); assay: Factor XIa enzyme inhibition assay (chromogenic substrate S-2366); settings: read-out: Factor XIa Ki; measured at 25° C.
Counter-ions that a name gives are not always drawn.

molecule: CN1CCN(c2cccc3c2CCN(C(=O)c2cnn(-c4cccc(Cl)c4F)c2N)C3C(=O)Nc2ccc(C(=O)O)cc2)CC1=O (stereo not drawn) [Example 318, TFA salt]
target under test: purified human Factor XIa (Homo sapiens (Human))
Ki: < 0.005 µM

molecule: O=C(O)c1ccc(NC(=O)C2c3cccc(OC4CCNCC4)c3CCN2C(=O)c2cn(-c3cccc(Cl)c3F)nn2)cc1 (stereo not drawn) [Example 112, TFA salt]
target under test: purified human Factor XIa (Homo sapiens (Human))
Ki: < 0.005 µM

molecule: O=C(O)c1ccc(NC(=O)[C@H]2c3cccc(N4CCN(CC(F)(F)F)CC4)c3CCN2C(=O)[C@H]2CC(c3cccc(Cl)c3F)=NO2)cc1 [Example 231, TFA salt]
target under test: purified human Factor XIa (Homo sapiens (Human))
Ki: 0.136 µM

molecule: CN1CCN(c2cccc3c2CCN(C(=O)c2cn(-c4cccc(Cl)c4)nc2C(F)(F)F)C3C(=O)Nc2ccc(C(=O)O)cc2)CC1 (stereo not drawn) [Example 199, TFA salt]
target under test: purified human Factor XIa (Homo sapiens (Human))
Ki: 2.31 µM

molecule: Nc1c(C(=O)N2CCc3c(-c4cncnc4)cccc3C2C(=O)Nc2ccc(C(=O)O)cc2)cnn1-c1cccc(Cl)c1F (stereo not drawn) [Example 46, TFA salt]
target under test: purified human Factor XIa (Homo sapiens (Human))
Ki: < 0.005 µM

molecule: CN(C)C(=O)C1CCN(c2cccc3c2CCN(C(=O)c2cn(-c4cccc(Cl)c4F)cn2)[C@H]3C(=O)Nc2ccc(C(=O)O)cc2)CC1 (single isomer, unassigned) [Example 62, TFA salt]
target under test: purified human Factor XIa (Homo sapiens (Human))
Ki: 0.0746 µM

----------
target: purified human plasma kallikrein (Homo sapiens (Human), UniProt P03952); assay: Plasma kallikrein enzyme inhibition assay (chromogenic substrate S-2302); format: biochemical; details: measured at 25° C. (no asterisk); TFA
Sequence (P03952 391-638): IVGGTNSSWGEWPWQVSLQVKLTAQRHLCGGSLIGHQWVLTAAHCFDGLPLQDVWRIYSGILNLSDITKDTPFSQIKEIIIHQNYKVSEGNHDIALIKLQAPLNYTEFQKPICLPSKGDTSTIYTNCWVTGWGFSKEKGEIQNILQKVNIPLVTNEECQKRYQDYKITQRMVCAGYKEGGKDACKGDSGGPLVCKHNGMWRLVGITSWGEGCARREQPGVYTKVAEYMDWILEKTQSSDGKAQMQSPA
Sequence (P03952 20-390 partner): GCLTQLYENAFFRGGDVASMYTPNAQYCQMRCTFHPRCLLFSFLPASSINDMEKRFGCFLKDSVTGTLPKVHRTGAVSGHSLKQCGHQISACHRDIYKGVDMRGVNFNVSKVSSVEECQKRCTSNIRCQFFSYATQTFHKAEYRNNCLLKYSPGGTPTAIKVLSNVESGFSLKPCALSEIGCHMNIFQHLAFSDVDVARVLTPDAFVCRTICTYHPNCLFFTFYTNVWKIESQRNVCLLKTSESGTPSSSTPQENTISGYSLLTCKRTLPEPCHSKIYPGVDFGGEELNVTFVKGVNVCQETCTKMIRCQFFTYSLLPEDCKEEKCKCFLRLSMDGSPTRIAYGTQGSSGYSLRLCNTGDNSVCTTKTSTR
pKi: −log10 of the molar value. Where a name gives a salt, the structure may show the parent alone.

compound: COC1CCN(c2cccc3c2CCN(C(=O)C2CC(c4cccc(Cl)c4F)=NO2)C3C(=O)Nc2ccc(C(=O)O)cc2)CC1 (single isomer, unassigned) [Example 305, TFA]
pKi: 7.50
//
compound: CN1CCN(c2cccc3c2CCN(C(=O)C2CC(c4cccc(Cl)c4F)=NO2)C3C(=O)Nc2ccc(C(=O)O)cc2)CC1=O (single isomer, unassigned) [Example 281, TFA]
pKi: 7.10

----------
# key: entry, value: Ki
target: purified human Factor XIa (Homo sapiens (Human), UniProt P03951); assay: Factor XIa enzyme inhibition assay (chromogenic substrate S-2366); conditions: read-out: Factor XIa Ki; measured at 25° C.; TFA salt
Sequence (P03951 388-625): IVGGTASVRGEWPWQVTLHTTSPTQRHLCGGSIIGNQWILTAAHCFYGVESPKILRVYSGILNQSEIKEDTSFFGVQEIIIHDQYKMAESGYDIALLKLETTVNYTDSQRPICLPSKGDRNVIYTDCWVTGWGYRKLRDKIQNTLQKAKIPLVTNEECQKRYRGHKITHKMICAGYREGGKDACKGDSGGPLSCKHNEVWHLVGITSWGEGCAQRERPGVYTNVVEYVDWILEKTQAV
Sequence (P03951 19-387 partner): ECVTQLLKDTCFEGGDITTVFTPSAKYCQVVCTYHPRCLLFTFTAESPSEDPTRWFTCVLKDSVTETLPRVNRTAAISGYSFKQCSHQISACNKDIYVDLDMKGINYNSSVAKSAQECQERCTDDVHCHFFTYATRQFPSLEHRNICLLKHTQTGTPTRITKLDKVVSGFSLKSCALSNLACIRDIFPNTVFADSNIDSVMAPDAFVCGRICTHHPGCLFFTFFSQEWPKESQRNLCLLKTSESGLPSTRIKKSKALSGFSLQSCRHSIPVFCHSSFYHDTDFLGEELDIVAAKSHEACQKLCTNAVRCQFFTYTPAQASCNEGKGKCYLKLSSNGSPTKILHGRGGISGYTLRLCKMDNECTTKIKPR
Structures can show the parent of a compound that is named as a salt.

compound: CN1CCN(c2cccc3c2CCN(C(=O)C2CC(c4cccc(Cl)c4F)=NO2)C3C(=O)Nc2ccc(C(=O)O)cc2)CC1=O (single isomer, unassigned) [Example 282, TFA salt]
Ki: < 5 nM

compound: COC1CCN(c2cccc3c2CCN(C(=O)C2CC(c4c(F)ccc(Cl)c4F)=NO2)C3C(=O)Nc2ccc(C(=O)O)cc2)CC1 (stereo not drawn) [Example 257, TFA salt]
Ki: < 5 nM

compound: CC(C)(O)C1CCN(c2cccc3c2CCN(C(=O)C2CC(c4cccc(Cl)c4F)=NO2)C3C(=O)Nc2ccc(C(=O)O)cc2)CC1 (stereo not drawn) [Example 262, TFA salt]
Ki: < 5 nM

----------
target: purified human Factor XIa (Homo sapiens (Human), UniProt P03951); assay: Factor XIa enzyme inhibition assay (chromogenic substrate S-2366); settings: read-out: Factor XIa Ki; measured at 25° C.
pKi: −log10 of the molar value. Where a name gives a salt, the structure may show the parent alone.

compound: COc1cncc(-c2cccc3c2CCN(C(=O)c2cn(-c4cccc(Cl)c4F)nn2)C3C(=O)Nc2ccc(C(=O)O)cc2)c1 (stereo not drawn) [Example 36, TFA salt]
pKi: > 8.30
//
compound: CC1(O)CCN(c2cccc3c2CCN(C(=O)c2cn(-c4cccc(Cl)c4F)nn2)C3C(=O)Nc2ccc(C(=O)O)cc2)CC1 (stereo not drawn) [Example 67, TFA salt]
pKi: > 8.30
//
compound: O=C1CCC2(CCN(c3cccc4c3CCN(C(=O)c3cn(-c5cccc(Cl)c5F)nn3)C4C(=O)Nc3ccc(C(=O)O)cc3)CC2)O1 (stereo not drawn) [Example 76, TFA]
pKi: > 8.30

----------
Below: a set of entries, each annotated with reported Ki.
biological target: purified human Factor XIa (Homo sapiens (Human), UniProt P03951); assay: Factor XIa enzyme inhibition assay (chromogenic substrate S-2366); settings: read-out: Factor XIa Ki; measured at 25° C.
Where a name gives a salt, the structure may show the parent alone.

molecule: O=C(O)c1ccc(NC(=O)[C@H]2c3cccc(N4CCN(C5COC5)CC4)c3CCN2C(=O)[C@H]2CC(c3cccc(Cl)c3F)=NO2)cc1 [Example 228, TFA salt]
Ki: < 5 nM
//
molecule: COC1CCN(c2cccc3c2CCN(C(=O)c2cnn(-c4cccc(Cl)c4F)c2N)[C@@H]3C(=O)Nc2ccc(C(=O)O)cc2)CC1 [Example 285, TFA salt]
Ki: < 5 nM
//
molecule: O=C(O)c1ccc(NC(=O)C2c3cccc(-c4cnc5[nH]ccc5c4)c3CCN2C(=O)c2cn(-c3cccc(Cl)c3F)nn2)cc1 (stereo not shown) [Example 181, TFA salt]
Ki: < 5 nM
//
molecule: CCOC(=O)c1ccc(NC(=O)C2c3cccc(N4CCC(N5CCCC5)CC4)c3CCN2C(=O)c2cn(-c3cccc(Cl)c3F)nn2)cc1 (stereo not shown) [Example 219, TFA salt]
Ki: < 5 nM
//
molecule: CN(C)C1CCN(c2cccc3c2CCN(C(=O)c2cn(-c4cccc(Cl)c4F)nn2)[C@@H]3C(=O)Nc2ccc(C(=O)O)cc2)CC1 (single isomer, unassigned) [Example 49, bis-TFA salt]
Ki: < 5 nM
//
molecule: CO[C@@H]1CCN(c2cccc3c2CCN(C(=O)c2cn(-c4cccc(Cl)c4F)nn2)C3C(=O)Nc2ccc(C(=O)O)cc2)C1 (mixture of isomers) [Example 84, TFA salt]
Ki: < 5 nM
//
molecule: O=C(O)c1ccc(NC(=O)C2c3cccc(N4CCC(N5CCCC5)CC4)c3CCN2C(=O)c2cn(-c3cccc(Cl)c3F)nn2)cc1 (stereo not shown) [Example 210, TFA salt]
Ki: < 5 nM

----------
// reported log10 Ki for each item listed
target: purified human plasma kallikrein (Homo sapiens (Human), UniProt P03952); assay: Plasma kallikrein enzyme inhibition assay (chromogenic substrate S-2302); assay type: biochemical; conditions: measured at 25° C. (no asterisk); TFA salt
Counter-ions that a name gives are not always drawn.
measure name: log10 Ki (log10 of the value in nM)

compound: COC1CCN(c2cccc3c2CCN(C(=O)C2CCN(c4cccc(Cl)c4F)C2)C3C(=O)Nc2ccc(C(=O)O)cc2)CC1 (stereo not shown) [Example 308, TFA salt]
target under test: purified human plasma kallikrein (Homo sapiens (Human), UniProt P03952)
measure name: log10 Ki
reported result: 1.90

compound: COC1CCN(c2cccc3c2CCN(C(=O)C2CC(c4cccc(Cl)c4F)=NO2)C3C(=O)Nc2ccc(C(=O)O)cc2)CC1 (single isomer, unassigned) [Example 304, TFA salt]
target under test: purified human plasma kallikrein (Homo sapiens (Human), UniProt P03952)
measure name: log10 Ki
reported result: 2.37

compound: COC1CCN(c2cccc3c2CCN(C(=O)C2CCN(c4cccc(Cl)c4F)C2)C3C(=O)Nc2ccc(C(=O)O)cc2)CC1 (stereo not shown) [Example 307, TFA salt]
target under test: purified human plasma kallikrein (Homo sapiens (Human), UniProt P03952)
measure name: log10 Ki
reported result: 2.77

compound: CN1CCN(c2cccc3c2CCN(C(=O)C2CC(c4cccc(Cl)c4F)=NO2)C3C(=O)Nc2ccc(C(=O)O)cc2)CC1=O (single isomer, unassigned) [Example 282, TFA salt]
target under test: purified human plasma kallikrein (Homo sapiens (Human), UniProt P03952)
measure name: log10 Ki
reported result: 0.27

compound: COC1CCN(c2cccc3c2CCN(C(=O)C2CC(=O)N(c4cccc(Cl)c4F)C2)C3C(=O)Nc2ccc(C(=O)O)cc2)CC1 (stereo not shown) [Example 255, TFA salt]
target under test: purified human plasma kallikrein (Homo sapiens (Human), UniProt P03952)
measure name: log10 Ki
reported result: 2.34

compound: CN1CCN(c2cccc3c2CCN(C(=O)C2CC(c4cccc(Cl)c4F)=NO2)C3C(=O)Nc2ccc(C(=O)O)cc2)CC1=O (single isomer, unassigned) [Example 283, TFA salt]
target under test: purified human plasma kallikrein (Homo sapiens (Human), UniProt P03952)
measure name: log10 Ki
reported result: 1.88

compound: COC1CCN(c2cccc3c2CCN(C(=O)C2CC(=O)N(c4cccc(Cl)c4F)C2)C3C(=O)Nc2ccc(C(=O)O)cc2)CC1 (stereo not shown) [Example 260, TFA salt]
target under test: purified human plasma kallikrein (Homo sapiens (Human), UniProt P03952)
measure name: log10 Ki
reported result: 3.68
